biological target: human IL-12 receptor (IL-12Rβ1 and IL-12Rβ2) on HEK-Blue IL-12 cells (human, UniProt P42701 24-662; Q99665 24-862); assay: cell-based or functional assay
Sequence (Q99665 24-862, chain 2 of 2, other chains not shown): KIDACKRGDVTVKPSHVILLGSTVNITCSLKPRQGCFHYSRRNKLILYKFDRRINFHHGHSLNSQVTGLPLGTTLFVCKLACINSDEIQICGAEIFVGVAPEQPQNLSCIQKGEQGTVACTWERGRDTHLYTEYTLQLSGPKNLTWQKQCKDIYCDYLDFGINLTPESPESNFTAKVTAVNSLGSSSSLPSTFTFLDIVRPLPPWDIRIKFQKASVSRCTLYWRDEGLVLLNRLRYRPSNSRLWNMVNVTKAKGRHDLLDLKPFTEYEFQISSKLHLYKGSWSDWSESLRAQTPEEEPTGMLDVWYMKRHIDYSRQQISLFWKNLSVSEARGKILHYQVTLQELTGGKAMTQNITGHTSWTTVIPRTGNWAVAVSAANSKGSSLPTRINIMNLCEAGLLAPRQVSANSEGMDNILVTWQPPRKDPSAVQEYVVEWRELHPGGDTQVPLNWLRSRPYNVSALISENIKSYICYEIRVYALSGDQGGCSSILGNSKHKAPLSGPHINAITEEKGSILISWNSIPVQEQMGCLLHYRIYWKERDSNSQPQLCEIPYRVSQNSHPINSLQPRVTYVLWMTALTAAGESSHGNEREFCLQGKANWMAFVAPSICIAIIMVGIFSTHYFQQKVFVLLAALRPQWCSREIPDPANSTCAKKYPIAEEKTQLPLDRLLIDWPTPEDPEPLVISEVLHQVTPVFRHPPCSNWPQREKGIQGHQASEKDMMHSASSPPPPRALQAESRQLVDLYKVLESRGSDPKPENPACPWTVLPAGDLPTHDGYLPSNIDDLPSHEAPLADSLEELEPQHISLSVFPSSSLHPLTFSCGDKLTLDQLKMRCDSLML
Give measured Max Absorbance for each item. Keep answers brief.
Numbers only.

DGL518 (bispecific antibody, V domains shown) V domain 1: EVQLVESGGGLVQPGGSLRLFCAASRSIFNINIMGWYRQAPGKQREWLASITSGGSTFYADSVKDRFTISRDSVKNTVYLQMNSLKPEDTAAYYCNRYRSVPLNTVYPWGQGTLVTVEP V domain 2: QVQLVESGGGLVRPGGSLRLSCAASGFTFSSNGMHWFRQAPGKGLEWVSSIGSGGTSIYYADSVKGRFTISRDNAKNTLYLQMNSLKSDDTAVYYCSKEVTGATRGQGTQVTVEP :: 0.27
DGL547 (bispecific antibody, V domains shown) V domain 1: EVQLVESGGGLVQPGGSLRLSCAASGFTLDYYAIGWFRQAPGKEREGVSCISSSDRSTWYADSVKGRFTISRDNAKNTVYLQMHSLKPEDTAVYYCATPCYSDYDPEGYEYDYWGQGTQVTVEP V domain 2: QLQLVESGGGLVQAGGSLRLSCAASGLTFSGYTVGWFRQAPGKEREFVAAINWSSAYTYSEFVKGRFTISRDNAKNTVYLQMSSLKPEDTAVYYCAAQRSRTSWYASTAEAYDYWGQGTQVTVEP :: 0.18
DGL481 (bispecific antibody, V domains shown, 67B1 x 19B2) V domain 1: QVQLVESGGGLVQAGGSLRLSCAASARIFNSYAVAWFRQTPGKEREFVASISWSGGSTNYADSVKGRFTISRDNAKNTVFLQMNSLKPADTAVYYCAADRNYYPSVLGKYTYWGQGTQVTVEP V domain 2: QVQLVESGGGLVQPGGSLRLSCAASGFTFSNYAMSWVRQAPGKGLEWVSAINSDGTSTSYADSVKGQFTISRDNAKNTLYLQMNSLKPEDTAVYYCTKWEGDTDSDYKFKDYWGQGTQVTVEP :: 0.93

Each of the following entries comes with a recorded value; kindly state Max Absorbance for each.
1. DGL551 (bispecific antibody, V domains shown, 195B1 x 185B2) V domain 1: QVQLVESGGGLVQAGGSLRLSCAASGRTFGTYAMGWFRQAPGKERDFVARISNSGAFTHYADSVKGRFTISRDNAKNTVYLHMNSLENGDTAAYYCVATRGTNSAYYTRSTMYEYWGQGTQVTVEP V domain 2: QVQLVESGGGLVQAGGSLRLSCAASGRTFSRYRMGWFRQAPGKEREFVAAITKSGATTYDADSVKGRFTISRDNAKNTLYLQMNSLKPEDTAVYYCAASYHSNWWPKNADEYAYWGQGTQVTVEP
2. DGL497 (bispecific antibody, V domains shown) V domain 1: EVQLVESGGGLVQAGGSLRLSCAASGLTFRNYAMAWFRQAPGKEREFVAGITWGGGLTHYVDSVKGRFTISRDNGKNTVYLQMNSLKSEDTAVYYCAGKTQGSTWYHLTPDGYDYWGQGTQVTVEP V domain 2: QVQLVESGGGLVQPGGSLRLSCAASGFTFSNYAMSWIRQGPERGFEWVSRINSGGGTTSYADSVKGRFTISRDNAKNTLYLQMNSLKPEDTAVYYCAKHSHPDYSSNYYRPGQGTQVTVEP

Found:
1. 0.59
2. 0.32

Below are some binders; for each one, tell me its Max Absorbance.
1. DGL568 (bispecific antibody, V domains shown, 233B1 x 13B2) V domain 1: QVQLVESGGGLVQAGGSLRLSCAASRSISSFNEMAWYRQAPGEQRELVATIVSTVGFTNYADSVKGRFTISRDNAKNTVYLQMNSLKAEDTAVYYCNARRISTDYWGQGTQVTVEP V domain 2: QVQLVESGGGLVRPGGSLRLSCAASGFTFSSNGMHWFRQAPGKGLEWVSSIGSGGTSIYYADSVKGRFTISRDNAKNTLYLQMNSLKSDDTAVYYCSKEVTGATRGQGTQVTVEP
2. DGL527 (bispecific antibody, V domains shown) V domain 1: EVQLVESGGGLVQPGGSLTLSCTASGFRFSDRSMGWYRQAPGKQRELVAAITVGGSTNYADSVKGRFTISRDNAKNTVYLQMNSLKPEDTALYYCNRRYPPDDYWGQGTQVTVEP V domain 2: QVQLVESGGGLVRPGGSLRLSCAASGFTFSSNGMHWFRQAPGKGLEWVSSIGSGGTSIYYADSVKGRFTISRDNAKNTLYLQMNSLKSDDTAVYYCSKEVTGATRGQGTQVTVEP
3. DGL487 (bispecific antibody, V domains shown, 67B1 x 190B2) V domain 1: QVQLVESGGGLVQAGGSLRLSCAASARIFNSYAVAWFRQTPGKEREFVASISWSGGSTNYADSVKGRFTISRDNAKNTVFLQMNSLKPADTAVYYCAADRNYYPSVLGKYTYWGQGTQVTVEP V domain 2: QVQLQESGPGLVKPSQTLSLTCTVSGGSITTNYYYWSWIRQPPGKGLEWMGAIAYSGSTYYSPSLKSRTSISRDTSKNQFTLQLSSVTPEDTAVYYCASGINFYSNYPTLNEYDYWGQGTQVTVEP
4. DGL464 (bispecific antibody, V domains shown) V domain 1: QVQLVESGGGLVQAGGSLRLSCAASGRAFSRYSMGWFRQAPGKEREFVAANYWSNGWTDYADTVKGRFSISRDNAKNTVYLQMNSLKPEDTAVYYCAGRSSSIPSADVVGYDYWGQGTQVTVEP V domain 2: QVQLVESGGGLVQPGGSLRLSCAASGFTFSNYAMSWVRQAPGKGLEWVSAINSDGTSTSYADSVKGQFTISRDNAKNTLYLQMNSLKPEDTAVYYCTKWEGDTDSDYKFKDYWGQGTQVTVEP
5. DGL533 (bispecific antibody, V domains shown) V domain 1: EVQLVESGGGLVQPGGSLTLSCTASGFRFSDRSMGWYRQAPGKQRELVAAITVGGSTNYADSVKGRFTISRDNAKNTVYLQMNSLKPEDTALYYCNRRYPPDDYWGQGTQVTVEP V domain 2: QVQLVESGGGLVQAGGSLRLSCAASGRTFSSYAMGWFRQAPGKEREFVSAISWSGLSTYYVESVQGRFTISRDNAKNTVYLQMNSLKPEDTAVYYCAASRIYTNYVARSYEYDDWGQGTQVTVEP

Found:
[0.91, 0.54, 0.64, 0.47, 0.42]
